Biological target: SALL4 (Homo sapiens, UniProt Q96SW2+Q9UJQ4)
Construct: Full size proteins are fused for each of the target proteins tested
Sequence (Q9UJQ4 whole entry, the tested form may be a part): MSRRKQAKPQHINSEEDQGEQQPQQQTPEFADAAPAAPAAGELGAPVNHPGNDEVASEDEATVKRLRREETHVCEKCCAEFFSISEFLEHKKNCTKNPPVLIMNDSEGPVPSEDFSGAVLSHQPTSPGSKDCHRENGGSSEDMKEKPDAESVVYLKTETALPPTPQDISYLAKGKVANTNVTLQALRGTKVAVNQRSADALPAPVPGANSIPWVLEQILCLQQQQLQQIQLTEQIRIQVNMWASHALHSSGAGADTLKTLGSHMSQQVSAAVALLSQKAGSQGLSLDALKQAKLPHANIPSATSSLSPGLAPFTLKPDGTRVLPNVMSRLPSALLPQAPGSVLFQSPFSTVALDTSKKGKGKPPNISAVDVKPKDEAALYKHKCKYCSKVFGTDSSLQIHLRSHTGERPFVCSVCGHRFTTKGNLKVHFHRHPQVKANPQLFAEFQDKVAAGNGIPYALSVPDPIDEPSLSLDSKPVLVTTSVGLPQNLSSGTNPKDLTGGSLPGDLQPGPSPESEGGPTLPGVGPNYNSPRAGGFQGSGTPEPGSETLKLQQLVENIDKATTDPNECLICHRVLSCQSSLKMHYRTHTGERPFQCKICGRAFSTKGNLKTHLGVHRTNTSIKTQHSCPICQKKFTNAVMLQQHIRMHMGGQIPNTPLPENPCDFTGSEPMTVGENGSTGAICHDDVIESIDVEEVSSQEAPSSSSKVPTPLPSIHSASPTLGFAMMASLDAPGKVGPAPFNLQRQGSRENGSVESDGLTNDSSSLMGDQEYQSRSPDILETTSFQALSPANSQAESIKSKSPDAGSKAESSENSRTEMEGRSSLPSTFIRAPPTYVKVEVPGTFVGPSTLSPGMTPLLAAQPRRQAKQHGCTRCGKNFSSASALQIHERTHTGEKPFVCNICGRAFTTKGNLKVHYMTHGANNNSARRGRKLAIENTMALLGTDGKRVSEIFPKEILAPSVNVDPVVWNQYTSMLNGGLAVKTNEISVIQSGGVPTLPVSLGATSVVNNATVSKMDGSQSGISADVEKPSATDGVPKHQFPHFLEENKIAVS
Sequence (Q96SW2 whole entry, the tested form may be a part): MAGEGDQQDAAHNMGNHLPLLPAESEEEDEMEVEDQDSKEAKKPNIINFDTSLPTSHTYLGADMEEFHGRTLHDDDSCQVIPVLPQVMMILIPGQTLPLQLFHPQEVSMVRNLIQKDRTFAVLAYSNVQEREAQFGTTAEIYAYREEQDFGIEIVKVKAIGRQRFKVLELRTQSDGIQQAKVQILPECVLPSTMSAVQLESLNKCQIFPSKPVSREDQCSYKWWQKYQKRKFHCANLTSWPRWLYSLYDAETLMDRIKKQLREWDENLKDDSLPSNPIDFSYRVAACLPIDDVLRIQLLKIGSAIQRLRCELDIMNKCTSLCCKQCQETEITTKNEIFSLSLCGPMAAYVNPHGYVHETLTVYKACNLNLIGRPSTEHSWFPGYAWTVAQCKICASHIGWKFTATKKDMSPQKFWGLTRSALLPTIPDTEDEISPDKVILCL
Assay: Recruitment Assay (MAPPIT-like): SALL4 recruitment, pSEL-SALL4+pMG1-CRBN
Conditions: recruitment of SALL4, protocol of Example 2; read-out: EC50_SALL4
pEC50: −log10 of the molar value.
REPORTED ENDPOINT: pEC50

COMPOUND: Cc1cccc2c1CN(C1CCC(=O)NC1=O)C2=O (stereo not drawn)
pEC50: > 7.86
--
COMPOUND: O=C1CCC(N2Cc3c(Cl)cccc3C2=O)C(=O)N1 (stereo not drawn)
pEC50: > 7.86

For reference, reported pEC50 for Cc1ccc2c(c1)CN(C1CCC(=O)NC1=O)C2=O (stereo not drawn) stands at > 7.86
